Test system: RAW-Dual (murine macrophage reporter line)
Experiment: NF-kB reporter (SEAP) activity fold change vs agonist alone; higher = enhanced NF-kB activity
Conditions: modulator concentration 10 µM; agonist: MPLA […]
Measured NF-kB reporter accompanies every entry in the list below.

Consider the molecule OC(c1cc(C(F)(F)F)nc2c(C(F)(F)F)cccc12)C1CCCCN1 (stereo not given) [Prestw-126] tested on RAW-Dual (murine macrophage reporter line); state its NF-kB reporter.
0.887

Consider the molecule `C=Cc1c(C)c2cc3nc(cc4[nH]c(cc5nc(cc1[nH]2)C(C)=C5CCC(=O)O)c(CCC(=O)OC)c4C)[C@@]1(C)C3=CC=C(C(=O)OC)[C@H]1C(=O)OC` tested on RAW-Dual (murine macrophage reporter line); state its NF-kB reporter.
0.123

---
Consider the molecule `O=C(COc1ccc(Cl)cc1)Nc1ccc(OC(F)(F)F)cc1` tested on RAW-Dual (murine macrophage reporter line); state its NF-kB reporter.
0.943

Consider the molecule `c1ccc(-n2nnnc2Sc2ncnc3sc4c(c23)CCCC4)cc1` tested on RAW-Dual (murine macrophage reporter line); state its NF-kB reporter.
0.442

Consider the molecule `CC(=O)O.NCc1ccc(S(N)(=O)=O)cc1` tested on RAW-Dual (murine macrophage reporter line); state its NF-kB reporter.
0.992

Consider the molecule `O=C(NN=Cc1ccc([N+](=O)[O-])s1)c1ccc(Br)cc1` tested on RAW-Dual (murine macrophage reporter line); state its NF-kB reporter.
0.96

Consider the molecule `CN1CCN(C(=O)C(C)(c2ccccc2)c2ccccc2)CC1` tested on RAW-Dual (murine macrophage reporter line); state its NF-kB reporter.
0.946

Consider the molecule CC1CCN(C2CC(=O)N(c3ccc(S(=O)(=O)N4CCOCC4)cc3)C2=O)CC1 (stereo not given) tested on RAW-Dual (murine macrophage reporter line); state its NF-kB reporter.
0.843

Consider the molecule `CCOc1nc2cccc(C(=O)O)c2n1Cc1ccc(-c2ccccc2-c2nc(=O)o[nH]2)cc1` tested on RAW-Dual (murine macrophage reporter line); state its NF-kB reporter.
1.12

Consider the molecule `CCCOc1ccc(C=C2SC(N3CCN(c4ccccc4C)CC3)=NC2=O)cc1` tested on RAW-Dual (murine macrophage reporter line); state its NF-kB reporter.
0.975

* * *

Tested on: RAW-Dual (murine macrophage reporter line)
Assay: IRF reporter (Lucia luciferase) activity fold change vs agonist alone; higher = enhanced IRF activity
Conditions: modulator concentration 10 µM; agonist: 3'3'-cGAMP 10 ug/mL
Measured IRF reporter accompanies every entry in the list below.
Form: value (number only, do not type unit).

A selection of reference data follows.
Consider the compound `CCCCOc1ccc(CC(=O)NO)cc1` tested on RAW-Dual (murine macrophage reporter line); state its IRF reporter.
0.241

Consider the compound COc1ccccc1OCCNCC(O)COc1cccc2[nH]c3ccccc3c12 (stereo unspecified) tested on RAW-Dual (murine macrophage reporter line); state its IRF reporter.
1.26

Consider the compound `O=C(CCc1ccc(F)c(Cl)c1)NCCn1nccn1` tested on RAW-Dual (murine macrophage reporter line); state its IRF reporter.
1

---
Consider the compound CC1CC(=O)C2=C(C1)OC(N)=C(C#N)C2c1cccc2ccccc12 (stereo unspecified) tested on RAW-Dual (murine macrophage reporter line); state its IRF reporter.
0.988

Consider the compound `Cc1ccc(OCCOc2ncnc3ccccc23)c(Cl)c1` tested on RAW-Dual (murine macrophage reporter line); state its IRF reporter.
0.916

Consider the compound CC1(C)CC(=O)C2=C(C1)OC(N)=C(C#N)C2c1ccccc1C(F)(F)F (stereo unspecified) tested on RAW-Dual (murine macrophage reporter line); state its IRF reporter.
0.999
